test system: SH-SY5Y cells; test: Nuclear count from microscopy images (cellular growth and toxicity); conditions: PKIS2 primary screening; note: reference of the scale not given here
So I've got a bunch of compounds here, and I need their Nuclear Count values.

Output Nuclear Count of Nc1nc(-c2nccs2)c(-c2ccnc3ccccc23)s1 [UNC10225429A]
118.67

Output Nuclear Count of O=C(Nc1n[nH]c2cc(-c3ccccc3F)ccc12)C1CC1 [SB-733371]
133.33

Output Nuclear Count of Cc1cccc2c(-c3ccncc3)c(-c3ccc(F)cc3)nn12.Cl [UNC10225316A]
85.13

Output Nuclear Count of COc1cc2ncn(-c3cc(OCc4ccncc4Br)c(C(N)=O)s3)c2cc1OC [UNC10225386A]
97.54

Output Nuclear Count of COc1ccc(Nc2ncc(C#N)c(Nc3ccccc3C(N)=O)n2)cc1N1CCN(C)CC1 [GSK1558669]
62.25

Output Nuclear Count of NC(=O)c1sc(-n2cnc3ccccc32)cc1OCc1ccccc1F [UNC10225260A]
92.38

Output Nuclear Count of COC(=O)c1cccc(NC(=O)NCCNc2ccnc(Nc3ccc(F)cc3)n2)c1 [GSK1379883]
115.63

Output Nuclear Count of Cc1cc(-c2ccnc(Nc3cccc(C#N)c3)n2)cc(C)c1O [GSK1440913]
76.93

Output Nuclear Count of Cc1cccc(-c2nc(Nc3ccncc3)c3sccc3n2)n1 [GW869641]
70.17

* * *

test system: SH-SY5Y cells; details: PKIS2 primary screening, DQ Red BSA spot count
Metric name: DQ Spot
The answer should be a number; do not append a unit.

Output DQ Spot of Cc1ccc(Nc2ccnc(Nc3ccc(C)c(F)c3)n2)cc1O [GW582868]
94.80

Output DQ Spot of Nc1n[nH]c2cc(-c3ccccn3)ccc12 [GSK2189892]
107.54

Output DQ Spot of NCCCC(NC(=O)c1cc(Br)c(-c2ccnc3[nH]ccc23)s1)c1ccccc1.O=C(O)C(F)(F)F.O=C(O)C(F)(F)F (stereo not drawn) [UNC10225265A]
100.65

Output DQ Spot of COc1ccc(Nc2nccc(N3CCC(NC(=O)Nc4cccc(OC)c4)C3)n2)cc1 (stereo not drawn) [GSK1379742]
99.38

Output DQ Spot of N#CCc1ccc(Nc2nccc(Nc3ccc(Oc4ccccc4)cc3)n2)cc1 [GW639905]
113.65

Output DQ Spot of Cc1ccc(C(=O)Nc2ccc(Nc3ccnc4cc(-c5ccccn5)ccc34)cc2O)cc1.Cl [UNC10225182A]
15.81

Output DQ Spot of Clc1cccc(-c2nc(Nc3ccncc3)c3ccccc3n2)c1 [GW873004]
118.51

Output DQ Spot of CC(C(=O)NC1CCN(c2ccnc(Nc3ccc(F)cc3)n2)C1)c1ccc(Cl)cc1 (stereo not drawn) [GSK1379713]
124.60

Output DQ Spot of CNc1nc(-c2ccc3c(N)n[nH]c3c2)cc(N2C[C@@H](C(=O)NC3CCCCC3)OC[C@H]2C)n1 [GSK2375584]
104.60

* * *

system: SH-SY5Y cells; assay: Nuclear count from microscopy images (cellular growth and toxicity); settings: PKIS2 primary screening; note: reference of the scale not given here
Metric name: Nuclear Count
The answer should be a number; do not append a unit.

Please tell me the measured Nuclear Count for N#Cc1cnc2cc(-c3cnc(CNCCN4CCOCC4)s3)ccc2c1Nc1ccc(Oc2ccccc2)cc1 [UNC10225079A] ; system: SH-SY5Y cells.
110.49

Please tell me the measured Nuclear Count for O=C(c1ccc(-c2cc(-c3c[nH]nc3-c3ccccn3)ccn2)cc1)N1CCOCC1 [UNC10225421A] ; system: SH-SY5Y cells.
121.31

Please tell me the measured Nuclear Count for COc1cc(Nc2nccc(N3CCC(NS(=O)(=O)c4ccc(NC(C)=O)cc4)CC3)n2)cc(OC)c1OC ; system: SH-SY5Y cells.
107.84

Please tell me the measured Nuclear Count for NC(=O)c1cccc(Nc2nccc(Nc3ccc(Oc4c(Cl)cccc4Cl)c(Cl)c3)n2)c1 ; system: SH-SY5Y cells.
101.88

* * *

system: SH-SY5Y cells; conditions: PKIS2 primary screening, DQ Red BSA spot count
Metric name: DQ Spot
The answer should be a number; do not append a unit.

Output DQ Spot of FC(F)(F)c1ccc(/C=C/c2cncnc2Nc2ccc3[nH]c(Cc4ccccc4)nc3c2)cc1 [UNC10225096A]
101.82

Output DQ Spot of CSc1ccc(-c2nc3n(c2-c2ccncc2)CCC3)cc1 [UNC10225486A]
102.53

Output DQ Spot of NCCNS(=O)(=O)c1ccc(-c2ccnc3[nH]ccc23)cc1 [UNC10225023A]
94.72

Output DQ Spot of Fc1cc(Cl)ccc1Nc1ccnc2cc(-c3ccc(CN4CCOCC4)o3)ccc12 [UNC10225106A]
67.74

Output DQ Spot of C[C@@H]1CCCCN1c1cc(-c2ccc3c(N)n[nH]c3c2)nc(N)n1 [GSK2258759]
84.49

Output DQ Spot of Nc1cccc(-c2ccc3c(N)n[nH]c3c2)n1 [GSK2192730]
98.33

Output DQ Spot of Cl.c1ccc(Oc2ccc(Nc3ccnc4cc(-c5ccc(CN6CCNCC6)o5)ccc34)cc2)nc1 [UNC10225130B]
55.20

Output DQ Spot of COc1cc2nccc(Nc3ccc(Oc4ccccc4)cc3)c2cc1OC.Cl [UNC10225483A]
52.29

Output DQ Spot of Cc1ccc(C)c(NC(=O)NCCNc2ccnc(Nc3ccc(F)cc3)n2)c1 [GSK1379878]
104.85

Output DQ Spot of Fc1cc(Cl)ccc1Nc1ccnc2cc(-c3ccc(CN4CCSCC4)o3)ccc12 [UNC10225290A]
53.95

Output DQ Spot of N#Cc1cnc2cc(-c3cnc(CNCCN4CCOCC4)s3)ccc2c1Nc1ccc(Oc2ccccc2)cc1 [UNC10225079A]
51.66

Output DQ Spot of CS(=O)(=O)c1ccc(-c2nc3n(c2-c2ccncc2)CCC3)cc1 [UNC10224995A]
113.84

Output DQ Spot of COc1cccc(C2=C(N(C)c3ccccc3)C(=O)NC2=O)c1 [UNC10225293A]
106.44

Output DQ Spot of Cc1cc(N2CCC(NS(=O)(=O)c3ccc(F)cc3)CC2)nc(Nc2cccc(C#N)c2)n1 [GSK1653537]
98.84

Output DQ Spot of O=C(c1ccc(-c2cc(-c3c[nH]nc3-c3ccccn3)ccn2)cc1)N1CCCC1 [UNC10225230A]
99.92

Output DQ Spot of CC(C)(C)OC(=O)NC1CCCN(c2cc(-c3ccc4c(N)n[nH]c4c3)nc(N)n2)C1 (centres unmarked) [GSK2286096]
108.17

Output DQ Spot of Cl.Cl.NC[C@H](Cc1ccc(C(F)(F)F)cc1)NC(=O)c1cc(Br)c(-c2ccnc3[nH]ccc23)s1 [UNC10225108A]
85.33

* * *

tested on: SH-SY5Y cells; assay: Nuclear count from microscopy images (cellular growth and toxicity); conditions: PKIS2 primary screening; note: reference of the scale not given here
Decide by Nuclear Count: equal to or exceeding 90 means Met, less means Not met.

Quick check: does Nc1nccc(-c2c(-c3ccc(F)cc3)ncn2C2CCN(Cc3ccccc3)CC2)n1 [UNC10225058A] have Nuclear Count greater than or equal to 90?
Met

Quick check: does CCn1c(-c2ccoc2)nc2cnccc21 [UNC10225474A] have Nuclear Count greater than or equal to 90?
Met

Quick check: does O=S(=O)(c1ccc(-c2ccnc3[nH]ccc23)cc1)N1CCCC1 [UNC10225462A] have Nuclear Count greater than or equal to 90?
Met

Quick check: does Fc1cc(Cl)ccc1Nc1ccnc2cc(-c3ccc(CN4CCOCC4)o3)ccc12 [UNC10225106A] have Nuclear Count greater than or equal to 90?
Met

Quick check: does Cn1cc(-c2ccc3c(c2)CCN3C(=O)Cc2cc(F)cc(C(F)(F)F)c2)c2c(N)ncnc21 [UNC10225478A] have Nuclear Count greater than or equal to 90?
Met

Quick check: does COc1ccc(-c2oc3ncnc(N)c3c2-c2ccc(OC)cc2)cc1 [UNC10225431A] have Nuclear Count greater than or equal to 90?
Not met

* * *

So I've got a bunch of compounds here, and I need their DQ Spot values.
tested on: SH-SY5Y cells; conditions: PKIS2 primary screening, DQ Red BSA spot count
The answer should be a number; do not append a unit.

Output DQ Spot of Cc1c(O)cccc1Nc1ccnc2ccc(C(F)(F)F)cc12.Cl [UNC10225099A]
95.32

Output DQ Spot of CN1C(=O)C(Nc2ccc(Cl)c(C(=O)O)c2)=C(c2ccc(Cl)cc2)C1=O [UNC10225406A]
105.90

Output DQ Spot of c1ccc(-c2cc(-c3c[nH]nc3-c3ccccn3)ccn2)cc1 [UNC10225169A]
97.79

Output DQ Spot of Cl.NS(=O)(=O)c1cccc(Nc2cc(-c3ccc(F)cc3)n[nH]2)c1 [UNC10112764A]
103.52

Output DQ Spot of COc1cc(Nc2nccc(N3CCC(NC(=O)c4cccc(NC(C)=O)c4)C3)n2)cc(OC)c1OC (centres unmarked)
95.86

Output DQ Spot of COc1ccc(Nc2nccc(N3CCC(NC(=O)Nc4cccc(C(C)=O)c4)C3)n2)cc1 (centres unmarked)
92.48

Output DQ Spot of CS(=O)(=O)Nc1ccc(-c2ccnc3[nH]ccc23)cc1 [UNC10225427A]
80.51

Output DQ Spot of COC(=O)c1cccc(NC(=O)NC2CCN(c3ccnc(Nc4cc(OC)c(OC)c(OC)c4)n3)C2)c1 (centres unmarked)
95.59

// provenance: paper PMC9851200
